Biological target: T1, cyCD3e(1-109)_F-chLys_avi (cynomolgus monkey)
T1 construct: also called cynomolgus monkey CD3 epsilon antigen
T1 sequence (chain, as listed by the source limits assumed): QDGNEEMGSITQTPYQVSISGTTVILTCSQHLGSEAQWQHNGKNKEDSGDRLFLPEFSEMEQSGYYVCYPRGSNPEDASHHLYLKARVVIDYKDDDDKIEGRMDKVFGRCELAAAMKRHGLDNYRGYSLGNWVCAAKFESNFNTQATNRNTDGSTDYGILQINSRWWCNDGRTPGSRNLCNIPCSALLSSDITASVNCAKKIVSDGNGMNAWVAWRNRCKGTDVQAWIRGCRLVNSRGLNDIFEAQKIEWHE
Experiment: BLI (Octet HTX); FabCys captured on Fab-specific sensor, CD3e antigen as analyte; 1:1 model
# kon listing for each entry below
Numbers only; they are read as M⁻¹ s⁻¹.

As a guide, the following entries are already answered.
[
  {
    "binder": "MAB-7_h_FabCys (Fab, V domains shown, Tagless disulfide-bridged human FabCys produced in HEK293 cells; also called MAB-7 Fab-Cys) VH: EVQLVESGGGLVQPGGSLRLSCAASGFTFKSYYMSWVRQAPGKGLEWVANIDYQSQHAYYAESVKGRFTISRDNAKNSLYLQMNSLRAEDTAVYYCARGYSAEFAHRSGLDVWGQGTLVTVSS VL: QSVLTQPPSASGTPGQRVTISCSGSSSNIGSNYVYWYQQLPGTAPKLLIYRNNQRPSGVPDRFSGSKSGTSASLAISGLRSEDEADYYCAAWDRHSHGAVFGGGTKLTVLG",
    "kon [M⁻¹ s⁻¹]": 370000
  },
  {
    "binder": "MAB-8_h_FabCys (Fab, V domains shown, Tagless disulfide-bridged human FabCys produced in HEK293 cells; also called MAB-8 Fab-Cys) VH: EVQLVESGGGLVQPGGSLRLSCAASGFTFRSHYMTWVRQAPGKGLEWVANIDYEGTRTYYAESVKGRFTISRDNAKNSLYLQMNSLRAEDTAVYYCARGYSAEFAHRSGLDVWGQGTLVTVSS VL: QSVLTQPPSASGTPGQRVTISCSGSSSNIGSNYVYWYQQLPGTAPKLLIYRNNQRPSGVPDRFSGSKSGTSASLAISGLRSEDEADYYCAAWDRHSHGAVFGGGTKLTVLG",
    "kon [M⁻¹ s⁻¹]": 464000
  }
]

Please look at the following binder next.
Which kon is listed for MAB-13_h_FabCys (Fab, V domains shown, Tagless disulfide-bridged human FabCys produced in HEK293 cells; also called MAB-13 Fab-Cys) VH: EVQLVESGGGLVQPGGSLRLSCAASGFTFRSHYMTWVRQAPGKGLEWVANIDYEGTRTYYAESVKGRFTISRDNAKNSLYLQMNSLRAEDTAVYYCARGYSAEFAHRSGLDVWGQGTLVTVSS VL: QSVLTQPPSASGTPGQRVTISCSGSSSNIGINYVYWYQQLPGTAPKLLIYRNNQRPSGVPDRFSGSKSGTSASLAISGLRSEDEADYYCAAWDRHSHGAVFGGGTKLTVLG ?
413000

Origin of values: patent US20230357398A1
